meta.source: paper PMC314469

- System under test: T1, GST-Abp1 SH3 domain (S. cerevisiae, UniProt P15891 532-592)
- T1 chain: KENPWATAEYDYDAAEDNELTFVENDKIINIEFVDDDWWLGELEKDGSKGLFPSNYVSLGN
- Test summary: SPR
No end group written: not given here.
Recorded metric: Kd (µM)

SKDKKTKPTPPPKP (also: bound to cellulose membrane (SPOT)) [Ark1 peptide(s) on the Abp1 SPOT membrane]; 24
RPKRRAPPPVPKKP (also: bound to cellulose SPOT membrane) [Yir003w peptide(s) on the Abp1 SPOT membrane]; 0.92
PPPRPKKP (also: bound to cellulose membrane) [Srv2 peptide(s) on the Abp1 SPOT membrane]; 75
LSTKKPRPPVKSKP (also: bound to cellulose membrane) [Scp1 peptide(s) on the Abp1 SPOT membrane]; 14
GKDKSRPPRPPPKP (also: bound to cellulose membrane (SPOT)) [Prk1 peptide(s) on the Abp1 SPOT membrane]; 22
